Assay: qHTS RealTime-Glo MT Cell Viability Assay in HEK293 cells - 40 hour (AID 1224874); also: % is scaled to controls: 0 for no effect and ±100 for the full control effect; nearly all actives have a fitted effect of over 50% in size
Conditions: RealTime-Glo luminescence; active compounds read low
Results filed as inconclusive are left out.
Quick reference: max response of the listed items.

MOLECULE: CN(C)CCCO[C@@H]1[C@H]2OC(C)(C)O[C@H]2O[C@@H]1C(O)CO (some centres undefined)
MEASUREMENT_UNITS: %
max response: 0.847
//
MOLECULE: CCCCOCC(C)O (centres undefined)
MEASUREMENT_UNITS: %
max response: 10.5
//
MOLECULE: C=CC(=O)CCCCC
MEASUREMENT_UNITS: %
max response: -1.98
//
MOLECULE: CC1OCCC1=O (centres undefined)
MEASUREMENT_UNITS: %
max response: 3.12
//
MOLECULE: C/C=C(\C)C(=O)OCCc1ccccc1
MEASUREMENT_UNITS: %
max response: -3.34
//
MOLECULE: CC(C)Cn1cnc2c1c(=O)n(C)c(=O)n2C
MEASUREMENT_UNITS: %
max response: 2.8
//
MOLECULE: CC(=O)OC(C)=O
MEASUREMENT_UNITS: %
max response: 9.5
//
MOLECULE: C=CC(=O)OCC1CCCO1 (centres undefined)
MEASUREMENT_UNITS: %
max response: 0.647
//
MOLECULE: O=C1CCCCO1
MEASUREMENT_UNITS: %
max response: 1.35
//
MOLECULE: C[C@]12CCC(=O)C=C1CC[C@H]1[C@@H]3CC[C@](O)(C(=O)CO)[C@@]3(C)C[C@H](O)[C@@]12F
MEASUREMENT_UNITS: %
max response: -26.1
//
MOLECULE: O=C(O)CNC(=O)CNC(=O)CNC(=O)CSC(=O)c1ccccc1
MEASUREMENT_UNITS: %
max response: 6.64
//
MOLECULE: COC(=O)c1ccccc1C(=O)O
MEASUREMENT_UNITS: %
max response: -0.818
//
MOLECULE: CC/C(C)=N\O[Si](C)(O/N=C(\C)CC)O/N=C(\C)CC
MEASUREMENT_UNITS: %
max response: -3.49
//
MOLECULE: O=C(O)CSCC(=O)NC1CCSC1=O (centres undefined)
MEASUREMENT_UNITS: %
max response: -1.55

---

Assay: qHTS assay to identify small molecule antagonists of the estrogen receptor alpha (ER-alpha) signaling pathway using the BG1 cell line - cell viability counter screen (AID 743081);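 also: compound given together with 17beta-estradiol as the ER stimulus; % is scaled to controls: 0 for no effect and ±100 for the full control effect; nearly all actives have a fitted effect of over 45% in size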
Settings: BG1Luc4E2 viability, CellTiter-Fluor, 22 h; series mostly up to 70.3 µM
Results filed as inconclusive are left out. Calls of active or inactive are those of the source. The call rests on the fitted dose curve; in most records, active means well fitted cell-killing curve with a large enough effect in the repeat runs; inconclusive means weak or mixed curves, or effect the other way; inactive means flat fitted curve, though single readings scatter.

COMPOUND: O=C(O)CNC(=O)CNC(=O)CNC(=O)CSC(=O)c1ccccc1
outcome: inactive

COMPOUND: CC(C)c1ccc(C=O)cc1
outcome: inactive

COMPOUND: CC1CCc2c(N3CCC(O)CC3)c(F)cc3c(=O)c(C(=O)O)cn1c23 (centres undefined)
outcome: inactive

COMPOUND: Nc1nc(-c2ccccc2)c(Br)c(=O)[nH]1
outcome: inactive

COMPOUND: CCCCCCCCCCCCCCCCCCOCCO
outcome: inactive

COMPOUND: C#CCN[C@@H]1CCc2ccccc21
outcome: inactive

COMPOUND: CN(C)CCCCl
outcome: inactive

COMPOUND: N[C@@H](Cc1ccc(O)cc1)C(=O)O
outcome: inactive

COMPOUND: O=C[O][Al]([O]C=O)[O]C=O
outcome: inactive

COMPOUND: O/N=C/C=N/O
outcome: inactive

COMPOUND: CN(C)CCN(C)CCO
outcome: inactive

COMPOUND: Cc1ncc([N+](=O)[O-])n1CC(C)O (centres undefined)
outcome: inactive

COMPOUND: C[Si]1(C)O[Si](C)(C)O[Si](C)(C)O[Si](C)(C)O[Si](C)(C)O1
outcome: inactive

COMPOUND: CC(=O)c1cc(C)oc1C
outcome: inactive
